assay: growth of efflux-deficient E. coli DRC39 – strain DRC39, OD650, 24 h, E. coli filamentation inducers, primary screen (AID 1178);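 note: growth measured as culture turbidity by optical density at 650 nm; test concentration not given here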; details: E. coli DRC39 acrAB, higher = more signal, called active from +8 up or from −8 down
Criterion: z-score meeting or surpassing 0.01. Met: MET. Not met: NOT MET.

Example results:
{"Compound": "Cc1ccc(N2C(=O)c3ccccc3[C@@H](C(=O)NC(C)C)[C@@H]2c2ccc(CO)cc2)nc1", "Label": "MET"}
{"Compound": "C=CCOC(=O)[C@@H]1[C@H]2C(=O)O[C@H](c3ccccc3)[C@H](c3ccccc3)N2[C@H](c2ccc(OCCOC(=O)[C@H]3C[C@H]4C(=O)N[C@@H](CC(C)C)C(=O)N4[C@H]3c3cccc(OCCO)c3)cc2)[C@@]12C(=O)Nc1ccc(I)cc12", "Label": "NOT MET"}
{"Compound": "CCCNC(=O)[C@@]1(c2ccc([N+](=O)[O-])cc2)CC(=O)N(CC23CC4CC(CC(C4)C2)C3)[C@@H]1c1ccc(CO)cc1I", "Label": "NOT MET"}
{"Compound": "C[C@H]1C2[C@H](Cc3ccccc3)NC(=O)[C@]23C(=O)N[C@H](Cc2ccccc2)C(=O)N[C@H](Cc2ccccc2)C(=O)NC/C=C/CCC/C=C/C3[C@@H]2O[C@]12C (stereo partly specified)", "Label": "MET"}
{"Compound": "COCCOC(=O)N1C(=O)[C@@]2(c3cc(C#CCC(C(=O)OC)C(=O)OC)ccc31)[C@H](c1ccccc1OCCO)N1[C@H](c3ccccc3)[C@H](c3ccccc3)OC(=O)[C@H]1[C@@H]2C(=O)Nc1nc2ccccc2s1", "Label": "MET"}

Q: Given "C=CCN1Cc2ccccc2C[C@@]2(COC(c3ccc(OCCCO)cc3)=N2)C1=O" , state whether its z-score is at least 0.01.
Ans: MET

Q: Subsequent entry: O=C1C2C=CC(C(O)c3ccc(B(O)O)cc3)N(Nc3ccc([N+](=O)[O-])cc3)C2C(=O)N1c1ccccc1 (stereo unspecified)
Ans: NOT MET

Q: Subsequent entry: "CC(=O)NCCCC[C@@H]1NC(=O)[C@@H]2C[C@H](C(=O)NCc3ccc(F)cc3)[C@H](c3ccc(O)cc3)N2C1=O"
Ans: MET

Q: Subsequent entry: "COCCOC(=O)N1C(=O)[C@@]2(c3ccccc31)[C@H](c1ccc(O)cc1)N1[C@H](c3ccccc3)[C@H](c3ccccc3)OC(=O)[C@H]1[C@@H]2C(N)=O"
Ans: MET

Q: Subsequent entry: "Cc1ccc(F)cc1S(=O)(=O)N[C@@H]1CCN(Cc2ccc(C(F)(F)F)cc2)C1"
Ans: MET
